Target: T1, human CLDN18.1 on cells (CHO-hCLDN18.1) (human, UniProt P56856 1-261)
T1 construct: whole, on cells; also called human Claudin18.1
T1 sequence (P56856 whole entry): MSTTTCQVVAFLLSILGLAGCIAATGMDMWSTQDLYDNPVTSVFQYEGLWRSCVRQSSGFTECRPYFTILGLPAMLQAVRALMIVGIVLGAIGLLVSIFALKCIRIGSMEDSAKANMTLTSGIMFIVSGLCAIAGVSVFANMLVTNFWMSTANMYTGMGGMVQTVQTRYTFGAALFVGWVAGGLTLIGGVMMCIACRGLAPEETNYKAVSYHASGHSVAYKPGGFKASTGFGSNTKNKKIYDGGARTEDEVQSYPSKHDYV
Assay: flow cytometry, hybridoma supernatant on CHO-hCLDN18.1
measurement_name: binding result

{"binder": "25C7 (antibody secreted by the hybridoma, culture supernatant) (antibody, V domains shown) VH: EVMLVESGGGLVQPGGSRKLSCAASGFTFSDYGMAWVRQAPGKGPEWVAFINNLAYSIYYVDTVTGRFTISRENAKDTLYLEMSSLRSEDTALYYCARFTTGNVMDYWGQGTSVTVSS VL: DIVMTQSPSSLTVTAGEKVTMTCKSSQSLLNGGNQKNYLTWYQQKPGQPPKLLIYWSSTRESGVPDRFTGSGSGTDFTLTITSVQAEDLAVYYCQNSYSYPLTFGSGTKLELK", "measurement_name": "binding result", "result": "no binding"}
{"binder": "38F8 (antibody secreted by the hybridoma, culture supernatant) (antibody, V domains shown) VH: EVQLVESGGGLVKPGGSLKLSCAASGFSFSDYGMHWVRQAPEKGLEWIAYINSGSRTLYYADTVKGRFTISRDNAKNTLFLQMTSLRSEETAMYYCTRNAYYGNAMDYWGQGTSVTVSS VL: DIQMTQSPSSLTVTAGEKVTMSCKSSQSLLNSGNQRNYLTWYQQIPGQPPKLLIYWSSTRGSGVPDRFTGSGSGTDFTLTISSVQAEDLAVYFCQNVYYYPFTFGSGTRLEVK", "measurement_name": "binding result", "result": "no binding"}
{"binder": "14A5 (antibody secreted by the hybridoma, culture supernatant) (antibody, V domains shown) VH: QVQLKESGPGLVAPSQSLSITCSVSGFSLNSYGVGWVRQPPGKGLEWLGVIWGDGSTNYHSVLISRLSIRKDNSKSQVFLKLNSLQTDDTATYYCAMITRGNAMDYWGQGTSVTVSS VL: DIVMTQSPSSLTVTAGEKITMSCKSSQSLLNSGNQRNYLTWYQQKPGQTPKLLIYWASTRKSGVPDRFTGSGSGTDFTLTISSVQAEDLAVYSCQNNYLFPLTFGAGTKLELK", "measurement_name": "binding result", "result": "no binding"}
{"binder": "51H10 (antibody secreted by the hybridoma, culture supernatant) (antibody, V domains shown) VH: EVQLQQSVPELVKPGASVRMSCKASGYTFTKYIIQWVKQKPGQGLEWIAYINPYNDDTKYNEKFKGKATLTSDKSASTAYMELSSLTSEDSAVYYCATTYYGNSFPNWGQGTLVTVSA VL: DIVMTQSPSSLTVTAGERVTMTCKSSQSLLNSGNQKNYLTWYQQKPGQPPKLLIYWASTRESGVPDRFTGSGSGTDFTLTISSLQSEDLAVYFCQNDYSFPFTFGSGTKLEIK", "measurement_name": "binding result", "result": "no binding"}

Reference source: patent US20230235047A1
